Please respond with reported log p for every item in the list.
- test-protocol: log P by HPLC on reversed-phase columns (C 18), EEC Directive 79/831 Annex V.A8
- Type: physicochemical
- condition-set: [a] HPLC, acid region pH 2.3, 0.1% aqueous phosphoric acid and acetonitrile

Please review the entries below; each comes with its answer.
* CCN(C)C=Nc1cc(C)c(Oc2nc(Cc3ccc(F)c(C(F)(F)F)c3)ns2)cc1C | 2.24^[a]
* Cc1cccc(Cc2nsc(Oc3cc(C)c(N=CN4CCCCC4)cc3C)n2)c1 | 2.44^[a]

# return log p for each item in the list
1. CCN(C)C=Nc1cc(C)c(Oc2nc(Cc3ccc(F)cc3)ns2)cc1C
2. Cc1cc(Oc2nc(Cc3ccc(C(F)(F)F)cc3)ns2)c(C)cc1N=CN1CCCCC1
3. CCN(C)C=Nc1cc(C)c(Oc2nc(Cc3ccccc3Br)ns2)cc1C
4. Cc1cc(Oc2nc(Cc3cccc(Br)c3)ns2)c(C)cc1N=CN1CCCCC1

-- reply
1.74^[a]
2.66^[a]
2.32^[a]
2.23^[a]

Answer for every listed entry: what is its log p? The entries follow.
1. CCN(C)C=Nc1cc(C)c(Oc2nc(Cc3ccccc3F)ns2)cc1C
2. Cc1cc(Oc2nc(Cc3ccc(F)c(F)c3)ns2)c(C)cc1N=CN1CCCCC1

-- reply
["2.12^[a]", "2.39^[a]"]

-- ask Can you look up the measured log p of Cc1cc(Oc2nc(Cc3ccc4ccccc4c3)ns2)c(C)cc1N=CN1CCCCC1 [Example 92] for me?
-- reply 2.43^[a]

* * *

- test-protocol: log P by HPLC on reversed-phase columns (C 18), EEC Directive 79/831 Annex V.A8
- Type: physicochemical
- condition-set: reversed-phase C18 HPLC column, pH 2.3, [a] HPLC, acid region pH 2.3, 0.1% aqueous phosphoric acid and acetonitrile; read-out: log p
reported-endpoint: chromatographic logP
One number for each entry.

Some solved cases for reference:
* CCN(C)C=Nc1cc(C)c(Oc2nc(Cc3c(Cl)cccc3Cl)ns2)cc1C [Example 15] | 2.05
* Cc1cc(Oc2nc(Cc3cccc(C(F)(F)F)c3)ns2)c(C)cc1N=CN1CCCCC1 [Example 13] | 2.28
* CCN(C)C=Nc1cc(C)c(Oc2nc(C(C)(C)c3ccc(Cl)cc3)ns2)cc1C [Example 25] | 2.55
* CCN(C)C=Nc1cc(C)c(Oc2nc(Cc3cccc(OC)c3)ns2)cc1C [Example 16] | 1.7

Could I get chromatographic logP for every one of these entries?
1. Cc1cc(Oc2nc(Cc3ccc(Br)cc3)ns2)c(C)cc1N=CN1CCCCC1 [Example 33]
2. Cc1cc(Oc2nc(C3(c4ccc(Cl)cc4)CC3)ns2)c(C)cc1N=CN1CCCCC1 [Example 38]
3. CCC(c1ccccc1)c1nsc(Oc2cc(C)c(N=CN3CCCCC3)cc2C)n1 (centres unmarked) [Example 7]

-- reply
[2.17, 2.6, 2.21]

-- ask # get_value(readout='chromatographic logP', item= Cc1cc(Oc2nc(C(C)c3ccc(Cl)cc3)ns2)c(Cl)cc1N=CN1CCCCC1 (centres unmarked) [Example 21] )
-- reply 2.67

* * *

- test-protocol: log P by HPLC on reversed-phase columns (C 18), EEC Directive 79/831 Annex V.A8
- Format: physicochemical
- condition-set: [a] HPLC, acid region pH 2.3, 0.1% aqueous phosphoric acid and acetonitrile
reported-endpoint: log p

Below: 4 compounds and their reported log p.
- Cc1cc(Oc2nc(Cc3ccc(C#N)cc3)ns2)c(C)cc1N=CN1CCCCC1: 2.06^[a]
- CCN(C)C=Nc1cc(C)c(Oc2nc(Cc3ccc(SC(F)(F)F)cc3)ns2)cc1C: 2.78^[a]
- CCN(C)C=Nc1cc(C)c(Oc2nc(Cc3ccc(C(F)(F)F)cc3)ns2)cc1C: 2.29^[a]
- Cc1ccccc1Cc1nsc(Oc2cc(C)c(N=CN3CCCCC3)cc2C)n1: 2.06^[a]

For each of the compounds below, note its log p.
1. CCN(C)C=Nc1cc(C)c(Oc2nc(Cc3cc(F)ccc3F)ns2)cc1C
2. Cc1cc(Oc2nc(Cc3ccc4ccccc4c3)ns2)c(C)cc1N=CN1CCCCC1 [Example 107]
3. CCN(C)C=Nc1cc(C(C)C)c(Oc2nc(Cc3ccc(Cl)cc3)ns2)cc1C

-- reply
1. 1.66^[a]
2. 2.37^[a]
3. 2.71^[a]
